System: SARS-CoV-2 low-rank motif (SARS-low)
Assay: normalised indicator fluorescence (fraction of RNA + indicator signal without compound); higher = less displacement of indicator (weaker competition)
Settings: compound concentration: 5 uM; 30 min; indicator: TO-PRO-3 0.5 uM; RNA concentration: 0.5 uM
The entries below come with measured normalised indicator fluorescence values attached.
OBSERVED_PROPERTY: normalised indicator fluorescence

1) O=c1cc(-c2ccc(O)cc2)oc2cc(O)cc(O)c12 ... 1.27
2) O=C1CCc2ccccc2C1 ... 1.2
3) O=C(/C=C/C=C/c1ccc2c(c1)OCO2)N1CCCCC1 ... 1.15
4) NC(=O)N/N=C/c1ccc([N+](=O)[O-])o1 ... 1.05
5) CC1=CC(=O)c2c(O)cccc2C1=O ... 1.02
6) Cc1cc(C(C)(C)C)c(O)c(C(C)(C)C)c1 ... 1.23
7) N#Cc1c(NC(=O)c2cccc3ccccc23)sc2c1CCCC2 ... 1.1
8) Cc1cccc(CC(=O)N2CCc3c2ccc(-c2cn(C)c4ncnc(N)c24)c3F)n1 ... 1.05
9) O=C1O[C@H]([C@@H](O)CO)C(O)=C1O [L(+)-Ascorbic acid] ... 1.24
10) COC1=C2C[C@@H](C)C[C@H](OC)[C@H](O)[C@@H](C)/C=C(\C)[C@H](OC(N)=O)[C@@H](OC)/C=C\C=C(/C)C(=O)NC(=CC1=O)C2=O ... 1.36

###

Tested on: SARS-CoV-2 low-rank motif (SARS-low)
Experiment: normalised indicator fluorescence (fraction of RNA + indicator signal without compound); higher = less displacement of indicator (weaker competition)
Details: compound concentration: 5 uM; 30 min; indicator: TO-PRO-3 0.5 uM; RNA concentration: 0.5 uM
The entries below come with measured normalised indicator fluorescence values attached.
OBSERVED_PROPERTY: normalised indicator fluorescence

1. CCc1oc2ccccc2c1C(=O)c1cc(Br)c(O)c(Br)c1 ... 1.4
2. COc1ccc2c(c[n+](C)c3c4cc5c(cc4ccc23)OCO5)c1OC [Chelerythrine chloride] ... 0.807
3. COc1ccc(C2CC(=O)c3c(O)cc(OC4OC(COC5OC(C)C(O)C(O)C5O)C(O)C(O)C4O)cc3O2)cc1OC (configuration not stated) ... 1.37
4. O=c1ccc2ccc(O)cc2o1 [7-Hydroxycoumarin] ... 1.16
5. COC1=CC(=O)c2ccccc2C1=O ... 1.12
6. CC(=O)Oc1c(C)c(C)c2c(c1C)CCC(C)(CCC[C@H](C)CCC[C@H](C)CCCC(C)C)O2 (some centres not stated) [Vitamin E Acetate] ... 1.21
7. N#CC(c1ccnc(OCc2ccc(CN3CCOCC3)cc2)n1)c1nc2ccccc2s1 (configuration not stated) ... 0.556
8. Oc1cc(O)c2c(c1)O[C@H](c1ccc(O)c(O)c1)[C@@H](O)C2 [Cianidanol] ... 1.17
9. COc1ccc(O)cc1 ... 1.27
10. O=c1ccc2ccc(O)c(O)c2o1 ... 0.935
11. COc1ccc(-c2nc(-c3cc(C(F)(F)F)cc(C(F)(F)F)c3)n(Cc3ccc(C(N)=O)cc3)c2-c2ccc(OC)cc2)cc1 ... 1.14
12. Cc1cc(NC(=O)c2cccc(NC(=O)/C=C/CN(C)C)c2)ccc1Nc1nccc(-c2cccnc2)n1 ... 1.14
13. O=C(O)/C=C/c1ccc(Cn2ccnc2)cc1 [Ozagrel] ... 1.21
14. O=c1c(O)c(-c2cc(O)c(O)c(O)c2)oc2cc(O)cc(O)c12 ... 0.0645
15. Nc1ncnc2c1ncn2[C@@H]1O[C@H](CO)[C@@H](O)[C@@H]1O ... 1.17
16. COc1ccc(-c2coc3cc(O)ccc3c2=O)cc1O ... 1.09
17. C[C@H](CCC(=O)NCCS(=O)(=O)O)[C@H]1CC[C@H]2[C@@H]3[C@@H](O)C[C@@H]4C[C@H](O)CC[C@]4(C)[C@H]3CC[C@]12C ... 1.52
18. COC1=C(OC)C(=O)C(CCCCCCCCCCO)=C(C)C1=O ... 1.12
19. O=C(COc1ccc(Cl)cc1)NC1CCC(NC(=O)COc2ccc(Cl)cc2)CC1 (configuration not stated) ... 0.94
20. O=C(Nc1nc2ccc(NC(=O)C34CC5CC(CC(C5)C3)C4)cc2s1)c1ccccc1 ... 1.12
21. CC(C)c1cc(-c2n[nH]c(=O)n2-c2ccc3c(ccn3C)c2)c(O)cc1O ... 1.28
22. C[C@H]1Oc2cc(cnc2N)-c2c(nn(C)c2C#N)CN(C)C(=O)c2ccc(F)cc21 ... 1.23
